experiment: soluble on expression in E. coli; label from the status in PepcDB or PDB records
Readout: soluble on expression in E. coli

MHSFLQFLRDDNPGSLEDHLNFVPSDDLKYELGMLLSSRPLYLETDELPFVSSSVLNYGIKSSVFVVSAGEHSDSVNDEISSRILMMLQRYESRLEEPVVEYLSSDDNYSFFSVTALFFMDMVRLCIKWDKNSGEFSLDE | not soluble
MGSDKIHHHHHHMKLPPLQIGDLKADIPIIQGGMGVGISRSSLASAVANCGGVGTISGVQIGFDEPDFETNTFNANIRALNKHIKKAKQESKRGIIAVNFMVAMNDYDKYVKSAVDAGADLIVSGAGLPTALPKIVEGSKVKIAPIVSSPKAASVICKMWDKHHGRIPDLIVVEGPEAGGHLGFKAEQVKGSHEELSDILTGVLTAIKPFEEKHGVKIPVVCGGGVFYGKDIAKYIKLGASGVQMATRFIATEECDANLNYKNVYVNCKEDDIKIVKSPVGMPGRAISNKFVQSNDKNITITKCYNCLKPCNPKDTPYCISKALINAVNGNVDEALLFTGAKSYKIDKIVKVKELINELISDAECEF | not soluble

====

assay: soluble on expression in E. coli; label from the status in PepcDB or PDB records
Readout: soluble on expression in E. coli

MNYIESLISSVDSQIDTLNKAMIEVQSTIDLLSNGDLASSPEKLISIGSGLFAKGNITIDEDLIVPIGSGIYVAETKERSVERLKKNLEDIKASIQKLLDQRKTLVDQYNTVYATEATRNVK | not soluble
MSLSEEDLEKFLIKELTLQGYERLNLSDINDLESNFKLQLQRLNNISFSPTEWESFYRQNITNLKLTFEDKTKMLQSDGFTLTLEKEDGSKKNIILIDRVNPINNHLQVISQLKNENGEFKNRYDVSILVNGLPLVHIELKRRGVNLKEAFNQIRRYQKESFLEGNALYEFVQIFIISNGTLTKYYSNTNEGHHHHHH | soluble
MSVIKIEKALKLDKVIFVDVRTEGEYEEDHILNAINMPLFKNNEHNEVGTIYKMQGKHEAIQKGFDYVSYKLKDIYLQAAELALNYDNIVIYCARGGMRSGSIVNLLSSLGVNVYQLEGGYKAYRNFVLEYLRHVMDTKNFVSVHGLTGTGKTDLLHLLDENGIDVLDLEGIAKNSGSTFGFITFDKKPPSQKNFETKLFESIFFSKENYIFVESESKRVGSVTVPNEIFEAMTREGHHILLECDIENRVDRLCRDYIYDKDEGNILILKECINKFRKRLGNKVVDDYIDLLESGEYKELVKRYLLEYYDPLYMHSVEKYKYSKIINFNDTQKALEDVIDLYESILEGESEC | not soluble
MGSDKIHHHHHHMPTVERHIRGKWACDSCETLIQAPVPPQVIDKGIPTAGLLAQVLVAKYADHLPLYRQERMFGRAGLEIPRSTLAEWVGACGVQLQPLVDALRNTLLEHSVLHADETPVSMLAPGKKKTHKAYVWAYCTTPFADLKAAIYDFAPSRAGEHARTFLGDWRGKLVCDDYAGYKAGFGNGITEIGCMAHARRKFYDLHEANKSELAAKALEYIGGLYEIERETKDLPPDMRREIRQTKAKPLADALHQWMLAHRQKVPDGSGTAKALDYSLKRWEALTRYLDDGAVPIDNNWVENQIRPWALGRSNWLFAGSLRSGQRAAAVMTLIQSAKLNRHDPYAYLKDVLTRLPTQKNNAIDELLPHNWKPAIPNKV | not soluble

Q: Fill blank: measured soluble on expression in E. coli of the sequence MKSTSMNTNKRFQNVNQWKLHASAAAYLAGWKVVRLLPEPVAYRLFSWAAVIASRRGRGMDQLRRNLTRVVGAESVDRALVKRSMQSYARYWCEAFRLSVIARDPDVIHRVDAHAVGVEQVNPHSPMIIVLPHSGNWDLIGMYFVKKVGTFTTVAERVKPESLFRAFVNYRRSLGFEVLPLTGSETSPYSVLLQRVREGRTVCLLGERDLTSHGVEVEFFGETTRMPAGAVKLALDSGAPLHVAHTWFEGDDWGLSLSEPVEITDVKSGVQAIAQIMEKNIKAHPQDWHLLQPLWINDLDRRRYESGLQPKND is ____.
Ans: not soluble

Q: Fill blank: measured soluble on expression in E. coli of the sequence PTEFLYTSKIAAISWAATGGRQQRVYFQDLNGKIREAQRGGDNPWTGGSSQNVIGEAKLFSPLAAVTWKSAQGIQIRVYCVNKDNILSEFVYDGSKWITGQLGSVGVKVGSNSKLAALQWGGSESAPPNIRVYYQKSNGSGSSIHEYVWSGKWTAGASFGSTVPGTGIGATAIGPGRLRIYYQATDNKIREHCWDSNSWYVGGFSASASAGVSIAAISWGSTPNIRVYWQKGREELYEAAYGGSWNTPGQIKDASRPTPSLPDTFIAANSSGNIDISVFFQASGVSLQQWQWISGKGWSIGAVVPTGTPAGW is ____.
Ans: soluble

Q: Fill blank: measured soluble on expression in E. coli of the sequence MSLEEILIIDDSRQIADFLAETVLPYYGYRSRVVPTGWEGLAFLKQRQPDLILLDLQLPDTSGLDVLRQMGELGYDIPVILMTAHGTEQTAVEAFRLGAKNYLIKPFDASEAGAAIERALRERRLQREKEVLTRTLQQRLQELTILSSVGKSVTSLLDLEELLERIVDAGVYLTHAEEGYLLLRDGDELYLRAAKNLGEERVQRFRVKMDDNVAGQVIRTVKPIRLDRSQHQDLKLRTGLLVQAMLQVPLIVGRHAIGVLAVDNRVQQRTFSENDQYLLSAIADYAAIAIENSREGHHHHHH is ____.
Ans: soluble

Q: Fill blank: measured soluble on expression in E. coli of the sequence MDYTNNQLHVIYGDASLGLEGPNFHYLFSYERGGLESLVVNQKEWLYRTPTPLFWRATTDNDHGNGFDVKAAQWYAADRFTTCQKIDLTVDGQLVQPLPIAPLNNRYTNHEMANQVALTYHFVTPTVPSTSVSITYTVASDGNIKIMTHFAGREGLPELPAFGLRFIMPTTATGFDYQGLSGETYPDRLAGATQGQFHVDGLPVTPYLVPQECGMHMQTSQLTVTRSTTQNNADQSKQPFSLTFSQADQPFAFSCLPYTAAELEQATHLEELPLPRRTVLSIYGAVRGVGGIDSWGADVEAKYHIPANQDLDFSFNIHFLEHHHHHH is ____.
Ans: not soluble

Q: Fill blank: measured soluble on expression in E. coli of the sequence MGSDKIHHHHHHMRIGFLSHAGASIYHFRMPIIKALKDRKDEVFVIVPQDEYTQKLRDLGLKVIVYEFSRASLNPFVVLKNFFYLAKVLKNLNLDFIQSAAHKSNTFGILAAKWAKIPYRFALVEGLGSFYIDQGFKANLVRFVINSLYKLSFKFAHQFIFVNESNAEFMRNLGLKENKICVIKSVGINLKKFFPIYVESEKKELFWKNLNIDKKPIVLMIARALWHKGVKEFYESATMLKDKANFVLVGGRDENPSCASLEFLNSGAVHYLGARSDIVELLQNCDIFVLPSYKEGFPVSVLEAKACGKAIVVSDCEGCVEAISNAYDGLWAKTKNAKDLSEKISLLLEDEKLRLNLAKNAAQDALQYDENIIAQRYLKLYDRVIKNV is ____.
Ans: not soluble

Q: Fill blank: measured soluble on expression in E. coli of the sequence MKRFNVLKYIRTTKANIQTIAMPLTTKPLSLKINAALFDVDGTIIISQPAIAAFWRDFGKDKPYFDAEHVIHISHGWRTYDAIAKFAPDFADEEYVNKLEGEIPEKYGEHSIEVPGAVKLCNALNALPKEKWAVATSGTRDMAKKWFDILKIKRPEYFITANDVKQGKPHPEPYLKGRNGLGFPINEQDPSKSKVVVFEDAPAGIAAGKAAGCKIVGIATTFDLDFLKEKGCDIIVKNHESIRVGEYNAETDEVELIFDDYLYAKDDLLKW is ____.
Ans: soluble
